assay: MTT proliferation inhibition, NCI-H929
List of IC50 values.

The examples below pair each entry with its known result.
- molecule: "CC(C)C[C@H](NC(=O)N1CCC(C(=O)Nc2cnccn2)CC1)C(=O)N[C@@H](Cc1ccccc1)C(=O)N[C@@H](CC(C)C)C(=O)C1(C)CN1 (stereo partly drawn) [Compound 5v]"
  IC50: "> 1000 nM"
- molecule: "CC(C)C[C@H](NC(=O)N1CCC(C(=O)Nc2ccc(F)cc2)CC1)C(=O)N[C@@H](Cc1ccccc1)C(=O)N[C@@H](CC(C)C)C(=O)C1(C)CS1 (stereo partly drawn) [Compound 5u]"
  IC50: "> 1000 nM"
- molecule: "CC(C)C[C@H](NC(=O)N1CCC(C(=O)Nc2ccccn2)CC1)C(=O)N[C@@H](Cc1ccccc1)C(=O)N[C@@H](CC(C)C)C(=O)[C@@]1(C)CO1 [Compound 5k]"
  IC50: "15.3 nM"
- molecule: "CC(C)C[C@H](NC(=O)N1CCN(C(=O)c2cnccn2)CC1)C(=O)N[C@@H](Cc1ccccc1)C(=O)N[C@@H](CC(C)C)C(=O)[C@@]1(C)CO1 [Compound 5c]"
  IC50: "100 nM"
- molecule: "CC(C)C[C@H](NC(=O)N1CCC(C(=O)Nc2cnccn2)CC1)C(=O)N[C@@H](Cc1ccccc1)C(=O)N[C@@H](CC(C)C)C(=O)C1(C)CS1 (stereo partly drawn) [Compound 5t]"
  IC50: "> 1000 nM"

Problem: Given the entry CCN1CC1(C)C(=O)[C@H](CC(C)C)NC(=O)[C@H](Cc1ccccc1)NC(=O)[C@H](CC(C)C)NC(=O)N1CCC(C(=O)Nc2cnccn2)CC1 (stereo partly drawn) [Compound 5w] , report its measured IC50.
Result: > 1000 nM

###

system: PC-3; assay: MTT proliferation inhibition, PC-3; type: cell-based; details: Homo sapiens
List of IC50 values.
Field format: number, assumed µM, no unit text.

- molecule: "CC(C)C[C@H](NC(=O)[C@H](CCc1ccccc1)NC(=O)CN1CCOCC1)C(=O)N[C@@H](Cc1ccccc1)C(=O)N[C@@H](CC(C)C)C(=O)[C@@]1(C)CO1 [Carfilzomib, reference compound]"
  unitLabel: "µM"
  obsValue: 24.2

Now for another entry.
Problem: # returns recorded IC50 (system: PC-3) for `CC(C)C[C@H](NC(=O)N1CCC(C(=O)Nc2ccccn2)CC1)C(=O)N[C@@H](Cc1ccccc1)C(=O)N[C@@H](CC(C)C)C(=O)[C@@]1(C)CO1`
Result: 7.74

###

molecular target: proteasome PGPH active site (Homo sapiens); assay: Proteasome PGPH inhibition, substrate Z-Leu-Leu-Glu-AMC; type: biochemical; details: read-out: IC50 (nM) PGHP
readoutKind: IC50 (nM)
Field format: number, assumed nM, no unit text.

Problem: Given the entry `CC(C)C[C@H](NC(=O)N1CCC(C(=O)Nc2ccccn2)CC1)C(=O)N[C@@H](Cc1ccccc1)C(=O)N[C@@H](CC(C)C)C(=O)[C@@]1(C)CO1` , report its measured IC50.
Result: 485

###

Parameter pIC50, tested on Human proteasome chymotrypsin-like protease (Homo sapiens, UniProt P28074), listed per item.
FYI, pIC50 means -log10 of a concentration in mol per litre.

- chemicalSmiles: "CC(C)C[C@H](NC(=O)N1CCN(C(=O)c2cnccn2)CC1)C(=O)N[C@@H](Cc1ccccc1)C(=O)N[C@@H](CC(C)C)C(=O)[C@@]1(C)CO1"
  pIC50: 7.04

Now for another entry.
Problem: # returns recorded pIC50 (system: Human proteasome chymotrypsin-like protease (Homo sapiens, UniProt P28074)) for `CC(C)C[C@H](NC(=O)N1CCC(C(=O)Nc2ccccn2)CC1)C(=O)N[C@@H](Cc1ccccc1)C(=O)N[C@@H](CC(C)C)C(=O)[C@@]1(C)CO1`
Result: 8.82
